tgt: T1, human APJ receptor (human, UniProt P35414 1-380)
T1 sequence (looked up): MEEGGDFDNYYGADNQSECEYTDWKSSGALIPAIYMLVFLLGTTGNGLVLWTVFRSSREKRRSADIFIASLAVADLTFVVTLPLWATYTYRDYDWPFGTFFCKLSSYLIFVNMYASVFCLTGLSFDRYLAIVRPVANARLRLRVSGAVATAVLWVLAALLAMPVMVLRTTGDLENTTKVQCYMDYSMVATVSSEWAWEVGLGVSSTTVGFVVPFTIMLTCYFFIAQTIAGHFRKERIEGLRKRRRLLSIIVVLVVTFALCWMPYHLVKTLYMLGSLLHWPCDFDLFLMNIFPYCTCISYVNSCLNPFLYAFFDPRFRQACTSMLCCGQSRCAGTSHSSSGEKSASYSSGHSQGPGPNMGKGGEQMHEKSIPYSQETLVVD
protocol.text: cell-based or functional assay
Non-standard residues stand in square brackets, D forms with d. Primed or numbered codes have the meaning given here. No end group written: not given here. *: point of attachment. NPeg9 = PEG amine from Pra click product: 32-amino-3,6,9,12,15,18,21,24,27,30-decaoxadotriacontyl, NCCOCCOCCOCCOCCOCCOCCOCCOCCOCCOCC*; Pra′ = its azide, alkyne or alkene has reacted where a group follows in round brackets; dBip = N[C@H](Cc1ccc(-c2ccccc2)cc1)C(=O)O; Oic = O=C(O)[C@@H]1C[C@@H]2CCCC[C@@H]2N1; Phe(4-Cl) = N[C@@H](Cc1ccc(Cl)cc1)C(=O)O; Phe(4-I) = N[C@@H](Cc1ccc(I)cc1)C(=O)O; Tridecanoyl = CCCCCCCCCCCCC(=O)*; hArg = N=C(N)NCCCC[C@H](N)C(=O)O; Cha = N[C@@H](CC1CCCCC1)C(=O)O; NMeL = CN[C@@H](CC(C)C)C(=O)O; pGlu = O=C1CC[C@@H](C(=O)O)N1; AC4Abu″ = not defined here; β3hP = O=C(O)C[C@@H]1CCCN1; Nle = CCCC[C@H](N)C(=O)O; Orn = NCCC[C@H](N)C(=O)O; Pip′ = not defined here; AEEA = NCCOCCOCC(=O)O; βAla = NCCC(=O)O; Sar = CNCC(=O)O
measured.endpoint: EC50 Human APJ Receptor (nM)
// note: answer is a bare numeric in nM

Record excerpt, results attached:
Which EC50 Human APJ Receptor reading was recorded for the binder [Orn]F[hArg][hArg]Q[hArg]P[hArg][Cha]SH[βAla]G[Oic][Nle]P[Phe(4-Cl)] [apelin polypeptide SEQ ID NO: 703] ? 1.26

I have this binder here, [Orn]F[hArg][hArg]Q[hArg]P[hArg][Cha]SHKG[Oic][Nle][β3hP][Phe(4-Cl)] [apelin polypeptide SEQ ID NO: 709] , and I need its recorded EC50 Human APJ Receptor. 0.555

I am curious: what EC50 Human APJ Receptor value has been reported for [pGlu]RP[hArg][Cha][Pra′](NPeg9)HKG[Oic][Nle]P[Phe(4-Cl)]-OH [apelin polypeptide SEQ ID NO: 96] ? 2.02

Please look up its EC50 Human APJ Receptor: [Orn]F[hArg][hArg]Q[hArg]P[hArg][Cha]SHK[Sar][Oic][Nle]P[Phe(4-Cl)] [apelin polypeptide SEQ ID NO: 680] 0.116

# input binder: Ac-RQRP[hArg][Cha]SHKG[Oic][Nle]P[Phe(4-Cl)]-OH (SMILES CCCC[C@H](NC(=O)[C@@H]1C[C@@H]2CCCC[C@@H]2N1C(=O)CNC(=O)[C@H](CCCCN)NC(=O)[C@H](Cc1c[nH]cn1)NC(=O)[C@H](CO)NC(=O)[C@H](CC1CCCCC1)NC(=O)[C@H](CCCCNC(=N)N)NC(=O)[C@@H]1CCCN1C(=O)[C@H](CCCNC(=N)N)NC(=O)[C@H](CCC(N)=O)NC(=O)[C@H](CCCNC(=N)N)NC(C)=O)C(=O)N1CCC[C@H]1C(=O)N[C@@H](Cc1ccc(Cl)cc1)C(=O)O) [apelin polypeptide SEQ ID NO: 17] ; wanted: its EC50 Human APJ Receptor 0.171

Next:
Look at this binder and give its reported EC50 Human APJ Receptor. [Orn]F[hArg][hArg]Q[hArg][Sar][hArg][Cha]SHKG[Oic][Nle]P[Phe(4-Cl)] [apelin polypeptide SEQ ID NO: 676] 0.762

So what does the record say about EC50 Human APJ Receptor for [Orn]F[hArg][hArg]Q[hArg][Pip′][hArg][Cha]SHKG[Oic][Nle]P[Phe(4-Cl)] [apelin polypeptide SEQ ID NO: 695] ? 0.313

Data request, read-out EC50 Human APJ Receptor, for Tridecanoyl-[AC4Abu″][AEEA][AEEA]RQRP[hArg][NMeL]SHKG[Oic][Phe(4-I)]P[dBip]-OH (reading uncertain) [apelin polypeptide SEQ ID NO: 212] 0.515
